The origin of these recorded values is ChEMBL document CHEMBL1201862.

Target: Short transient receptor potential channel 4 (Mus musculus, UniProt Q9QUQ5)
Sequence (Q9QUQ5 whole entry): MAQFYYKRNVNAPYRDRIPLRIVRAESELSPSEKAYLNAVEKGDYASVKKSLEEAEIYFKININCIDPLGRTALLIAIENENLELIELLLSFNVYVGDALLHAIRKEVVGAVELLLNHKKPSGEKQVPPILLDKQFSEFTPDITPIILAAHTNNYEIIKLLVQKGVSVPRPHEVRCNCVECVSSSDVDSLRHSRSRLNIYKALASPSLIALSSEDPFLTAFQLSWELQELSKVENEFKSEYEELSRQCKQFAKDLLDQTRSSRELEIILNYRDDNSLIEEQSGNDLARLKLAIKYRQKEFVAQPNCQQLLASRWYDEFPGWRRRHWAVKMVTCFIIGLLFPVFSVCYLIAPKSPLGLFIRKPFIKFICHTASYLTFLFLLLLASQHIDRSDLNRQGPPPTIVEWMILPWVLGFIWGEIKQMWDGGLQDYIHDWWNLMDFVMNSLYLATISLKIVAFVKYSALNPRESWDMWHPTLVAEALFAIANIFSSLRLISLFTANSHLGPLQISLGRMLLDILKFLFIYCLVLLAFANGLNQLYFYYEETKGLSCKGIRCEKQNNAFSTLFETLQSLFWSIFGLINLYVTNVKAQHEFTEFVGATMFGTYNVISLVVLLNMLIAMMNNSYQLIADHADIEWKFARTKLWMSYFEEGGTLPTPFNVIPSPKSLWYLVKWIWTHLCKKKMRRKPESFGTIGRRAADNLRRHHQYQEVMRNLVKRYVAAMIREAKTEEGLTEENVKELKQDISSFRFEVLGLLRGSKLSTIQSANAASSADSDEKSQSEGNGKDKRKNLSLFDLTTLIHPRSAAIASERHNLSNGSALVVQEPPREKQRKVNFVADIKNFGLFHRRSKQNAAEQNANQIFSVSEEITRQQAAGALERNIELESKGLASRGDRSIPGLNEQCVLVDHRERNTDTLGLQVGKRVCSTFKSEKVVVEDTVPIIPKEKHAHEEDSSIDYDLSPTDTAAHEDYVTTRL
Assay: mouse TRPC4 channel inhibitors, dose response, cell-based, HEK293 TRPC4/mu-opioid, Fluo-4 calcium (AID 434942);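 further: potency of inhibitors blocking the TRPC4 calcium response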
Assay type: functional
Active and inactive are the calls of the source.
result_type: EC50

INPUT: // lookup EC50 for CN(C)C(CNC(=O)c1ccccc1OCc1ccc(Cl)cc1)c1ccco1 (stereo unspecified)
OUTPUT: 0.0947 µM (active)

====

AC50 by entry:
Biological target: DNA repair protein RAD52 homolog (Homo sapiens)
Sequence (P43351 whole entry): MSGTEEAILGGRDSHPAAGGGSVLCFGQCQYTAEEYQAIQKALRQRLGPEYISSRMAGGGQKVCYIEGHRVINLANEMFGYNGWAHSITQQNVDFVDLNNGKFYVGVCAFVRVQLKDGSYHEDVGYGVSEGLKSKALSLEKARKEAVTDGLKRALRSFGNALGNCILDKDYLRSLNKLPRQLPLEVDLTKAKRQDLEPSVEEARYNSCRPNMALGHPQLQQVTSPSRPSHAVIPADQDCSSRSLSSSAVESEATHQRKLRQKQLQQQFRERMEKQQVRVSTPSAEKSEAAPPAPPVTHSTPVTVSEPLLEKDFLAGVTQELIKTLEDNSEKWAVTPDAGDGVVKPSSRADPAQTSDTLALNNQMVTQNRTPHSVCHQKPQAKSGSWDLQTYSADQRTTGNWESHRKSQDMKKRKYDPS
Assay type: functional, biochemical
Activity calls are given as the source filed them.

// known answers, use as guide
compound	assayed_system	result_type	meas_value
CN(C)CCCN(C(=O)c1ccc2c(c1)CCCC2)c1nc2c(F)cccc2s1	DNA repair protein RAD52 homolog (Homo sapiens)	AC50	35.2 µM (active)
CC(C)(C)NCC(O)CON=C1c2ccccc2-c2ccccc21 (configuration not stated)	DNA repair protein RAD52 homolog (Homo sapiens)	AC50	20.1 µM (active)
CCCCCCCOC(=O)C[N+](C)(C)CCOC1CC2CCC1(C)C2(C)C (configuration not stated)	DNA repair protein RAD52 homolog (Homo sapiens)	AC50	29.2 µM (active)
CC[n+]1ccc(/C=C/c2ccc(N(C)C)cc2)c2ccccc21	DNA repair protein RAD52 homolog (Homo sapiens)	AC50	2.21 µM (active)
COc1ccc(-c2nc(CN3CCN(c4cc(C)nc(C)c4)CC3)c(C)o2)c2ccccc12	DNA repair protein RAD52 homolog (Homo sapiens)	AC50	7 µM (active)
CN(C)CCCNc1c2c(nc3ccccc13)CCC2	DNA repair protein RAD52 homolog (Homo sapiens)	AC50	4.86 µM (active)

Alright, here's another compound for you.
INPUT: // lookup AC50 for NCCCC[C@H]1CN=C(N)N1CCC12CC3CC(CC(C3)C1)C2
OUTPUT: 23.3 µM (active)

====

Tested on: Streptococcus sp. 'group A'
Assay: growth inhibition of control SK(-) GAS strain, dose response, counter-screen for streptokinase expression inhibitor project, luminescence, kanamycin, BacTiterGlo, confirmation (AID 1900)
Type: functional, organism-based
Calls of active or inactive are those of the source.
EC50 by entry:

// known answers, use as guide
O=C(Nc1ccccc1Cc1ccccc1)c1ccccc1NS(=O)(=O)c1ccc(Cl)s1 0.659 µM (active)
Cc1nn(-c2ccccc2)c2sc(C(=O)N3CCc4ccccc4C3)cc12 4.55 µM (active)
O=C(Nc1nnc(-c2ccco2)o1)c1ccc(Cl)s1 3.01 µM (active)
Cc1nnc(-c2cccc(Br)c2)c2cn(-c3ccc(Br)cc3)nc12 3.53 µM (active)

Alright, here's another compound for you.
INPUT: Param readout = EC50; param system = Streptococcus sp. 'group A'; param query = CCn1cc(C(=O)NCc2ccc3c(c2)OCO3)c(=O)c2cc(F)c(N3CCN(C(=O)c4ccco4)CC3)cc21 ; response: value
OUTPUT: 6.52 µM (active)

====

Molecular target: Ubiquitin-conjugating enzyme E2 N (Homo sapiens);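 further: Dose-response confirmation in a TR-FRET assay detecting UBC13-driven polyubiquitin chain formation, inhibition measured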
Sequence (P61088 whole entry): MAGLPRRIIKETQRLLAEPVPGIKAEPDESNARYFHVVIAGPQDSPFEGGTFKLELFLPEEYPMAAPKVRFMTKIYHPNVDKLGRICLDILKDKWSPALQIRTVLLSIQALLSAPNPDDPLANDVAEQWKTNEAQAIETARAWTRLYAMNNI
Type: functional
Calls of active or inactive are those of the source.
# valid calls are active, inactive; nothing else

COc1ccc(Nc2nc(N3CCCC3)c3ccccc3n2)cc1 inactive
COc1ccc2nc(C)cc(N/N=C/c3ccc(F)cc3)c2c1 active

INPUT: For this compound, state the assay outcome: Cc1ccsc1CNc1ncnc2ccc(-c3c(C)noc3C)cc12
OUTPUT: inactive

INPUT: For this compound, state the assay outcome: COc1ccccc1NC(=O)COc1ccc(C(=O)NCc2ccccc2)cc1OC
OUTPUT: active

INPUT: For this compound, state the assay outcome: Cc1ccccc1C(=O)NCC(=O)NNC(=S)NC(=O)c1ccccc1C
OUTPUT: inactive

INPUT: For this compound, state the assay outcome: Cc1ncc(S(=O)(=O)c2ccc(Cl)cc2)c(N)n1
OUTPUT: inactive

====

IC50 by entry:
Target: Fatty acid synthase (Homo sapiens, UniProt P49327)
Sequence (P49327 whole entry, the tested form may be a part): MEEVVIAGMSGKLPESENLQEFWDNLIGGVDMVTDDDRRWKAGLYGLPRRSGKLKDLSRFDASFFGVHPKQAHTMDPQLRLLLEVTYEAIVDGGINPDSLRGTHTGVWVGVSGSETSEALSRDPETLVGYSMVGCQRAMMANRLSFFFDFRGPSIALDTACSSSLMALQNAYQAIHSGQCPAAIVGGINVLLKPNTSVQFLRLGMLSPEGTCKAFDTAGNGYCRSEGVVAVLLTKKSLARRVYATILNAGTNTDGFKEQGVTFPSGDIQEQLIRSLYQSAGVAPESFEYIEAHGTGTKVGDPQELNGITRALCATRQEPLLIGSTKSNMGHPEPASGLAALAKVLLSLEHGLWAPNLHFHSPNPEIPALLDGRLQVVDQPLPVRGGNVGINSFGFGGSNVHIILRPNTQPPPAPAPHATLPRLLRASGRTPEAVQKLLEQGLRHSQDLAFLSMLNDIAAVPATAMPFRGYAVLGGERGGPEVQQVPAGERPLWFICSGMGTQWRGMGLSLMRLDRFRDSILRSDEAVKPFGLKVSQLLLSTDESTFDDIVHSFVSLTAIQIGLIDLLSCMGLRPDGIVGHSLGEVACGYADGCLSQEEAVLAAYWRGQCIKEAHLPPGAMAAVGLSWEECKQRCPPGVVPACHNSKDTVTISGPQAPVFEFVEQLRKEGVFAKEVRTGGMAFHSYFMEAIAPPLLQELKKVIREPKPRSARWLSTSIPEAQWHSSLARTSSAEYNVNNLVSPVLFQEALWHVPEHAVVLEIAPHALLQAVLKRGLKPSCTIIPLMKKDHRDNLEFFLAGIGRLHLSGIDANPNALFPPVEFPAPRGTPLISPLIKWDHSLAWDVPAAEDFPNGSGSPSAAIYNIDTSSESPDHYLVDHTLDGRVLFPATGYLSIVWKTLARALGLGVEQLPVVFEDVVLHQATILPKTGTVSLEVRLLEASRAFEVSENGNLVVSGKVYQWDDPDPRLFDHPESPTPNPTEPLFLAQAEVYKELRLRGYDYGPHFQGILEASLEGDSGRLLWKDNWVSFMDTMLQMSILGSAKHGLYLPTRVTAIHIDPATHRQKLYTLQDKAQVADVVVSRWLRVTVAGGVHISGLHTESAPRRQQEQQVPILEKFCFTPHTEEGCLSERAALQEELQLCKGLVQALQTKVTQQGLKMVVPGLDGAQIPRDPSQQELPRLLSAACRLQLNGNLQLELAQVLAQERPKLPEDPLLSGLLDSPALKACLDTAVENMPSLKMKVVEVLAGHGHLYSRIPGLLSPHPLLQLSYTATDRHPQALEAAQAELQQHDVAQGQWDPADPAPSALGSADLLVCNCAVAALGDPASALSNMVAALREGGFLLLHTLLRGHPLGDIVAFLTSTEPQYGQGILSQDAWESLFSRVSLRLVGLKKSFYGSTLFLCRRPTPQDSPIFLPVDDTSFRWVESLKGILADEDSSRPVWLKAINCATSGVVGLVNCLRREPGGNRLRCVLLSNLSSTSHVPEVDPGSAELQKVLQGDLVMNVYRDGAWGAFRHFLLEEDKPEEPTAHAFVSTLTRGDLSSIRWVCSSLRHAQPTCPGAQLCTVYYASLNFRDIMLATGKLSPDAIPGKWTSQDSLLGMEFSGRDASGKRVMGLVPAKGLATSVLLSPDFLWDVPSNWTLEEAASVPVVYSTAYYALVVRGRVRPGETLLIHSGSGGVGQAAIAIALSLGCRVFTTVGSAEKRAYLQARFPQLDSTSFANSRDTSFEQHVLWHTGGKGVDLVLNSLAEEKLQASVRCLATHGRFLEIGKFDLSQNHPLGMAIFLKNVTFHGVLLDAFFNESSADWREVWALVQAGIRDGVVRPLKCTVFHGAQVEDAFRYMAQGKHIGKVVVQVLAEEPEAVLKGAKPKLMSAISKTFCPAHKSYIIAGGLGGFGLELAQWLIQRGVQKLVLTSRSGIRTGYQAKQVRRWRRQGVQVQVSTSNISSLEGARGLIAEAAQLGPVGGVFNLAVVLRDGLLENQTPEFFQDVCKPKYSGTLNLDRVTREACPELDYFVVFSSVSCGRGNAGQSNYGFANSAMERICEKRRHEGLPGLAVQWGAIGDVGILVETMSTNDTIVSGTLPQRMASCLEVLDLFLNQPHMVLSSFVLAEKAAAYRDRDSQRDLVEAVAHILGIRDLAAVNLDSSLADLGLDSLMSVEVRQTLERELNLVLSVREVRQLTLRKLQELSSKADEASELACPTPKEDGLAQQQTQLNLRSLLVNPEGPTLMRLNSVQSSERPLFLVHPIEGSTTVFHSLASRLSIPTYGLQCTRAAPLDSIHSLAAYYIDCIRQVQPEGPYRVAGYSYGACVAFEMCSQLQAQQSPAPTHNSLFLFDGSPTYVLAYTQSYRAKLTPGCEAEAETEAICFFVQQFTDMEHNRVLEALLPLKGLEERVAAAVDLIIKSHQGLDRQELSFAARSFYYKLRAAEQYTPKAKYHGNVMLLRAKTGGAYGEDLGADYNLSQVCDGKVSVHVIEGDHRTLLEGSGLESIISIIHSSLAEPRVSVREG
Assay: FAS thioesterase domain inhibitors, dose response, biochemical, kinetic fluorescence intensity (AID 624326);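 further: rate of fluorescence rise from hydrolysis of a fluorogenic O-methyl fluorescein ester substrate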
Format: functional
The source made the active and inactive calls.

INPUT: Param readout = IC50; param system = Fatty acid synthase (Homo sapiens, UniProt P49327); param query = O=c1[nH]c2cc([N+](=O)[O-])c([N+](=O)[O-])cc2[nH]c1=O [DNQX] ; response: value
OUTPUT: 6.88 µM (active)

INPUT: Param readout = IC50; param system = Fatty acid synthase (Homo sapiens, UniProt P49327); param query = CC(C)NC(=O)N(C)C[C@H]1Oc2c(NC(=O)Nc3ccc(C(F)(F)F)cc3)cccc2C(=O)N([C@H](C)CO)C[C@@H]1C ; response: value
OUTPUT: 1.08 µM (active)

INPUT: Param readout = IC50; param system = Fatty acid synthase (Homo sapiens, UniProt P49327); param query = O=C(Cn1c(=O)c2sccc2n(Cc2ccc([N+](=O)[O-])cc2)c1=O)NCCc1ccccc1 ; response: value
OUTPUT: 4.79 µM (active)

INPUT: Param readout = IC50; param system = Fatty acid synthase (Homo sapiens, UniProt P49327); param query = O=[N+]([O-])c1ccc(S(=O)(=O)NN=Cc2ccc(Cl)c(Cl)c2)cc1 ; response: value
OUTPUT: 2.68 µM (active)

INPUT: Param readout = IC50; param system = Fatty acid synthase (Homo sapiens, UniProt P49327); param query = Cc1ccc([N+](=O)[O-])cc1N=C(S)NCCc1ccccc1 ; response: value
OUTPUT: 13.1 µM (active)

INPUT: Param readout = IC50; param system = Fatty acid synthase (Homo sapiens, UniProt P49327); param query = Cc1nc2ccc(NC(=O)c3cc([N+](=O)[O-])cc([N+](=O)[O-])c3Cl)cc2s1 ; response: value
OUTPUT: 2.54 µM (active)

INPUT: Param readout = IC50; param system = Fatty acid synthase (Homo sapiens, UniProt P49327); param query = Cc1c(Cl)c([N+](=O)[O-])nn1CCCC(=O)Nc1cccc(Cl)c1 ; response: value
OUTPUT: 16.2 µM (active)

INPUT: Param readout = IC50; param system = Fatty acid synthase (Homo sapiens, UniProt P49327); param query = Cc1ccccc1CS(=O)(=O)c1nnc([C@H](CC(C)C)NC(=O)OC(C)(C)C)o1 ; response: value
OUTPUT: 7.36 µM (active)

====

Biological target: Tyrosine-protein kinase receptor TYRO3 (Homo sapiens, UniProt Q06418);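 further: TYRO3 value obtained as one member of a kinome-wide profiling panel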
Sequence (Q06418 whole entry): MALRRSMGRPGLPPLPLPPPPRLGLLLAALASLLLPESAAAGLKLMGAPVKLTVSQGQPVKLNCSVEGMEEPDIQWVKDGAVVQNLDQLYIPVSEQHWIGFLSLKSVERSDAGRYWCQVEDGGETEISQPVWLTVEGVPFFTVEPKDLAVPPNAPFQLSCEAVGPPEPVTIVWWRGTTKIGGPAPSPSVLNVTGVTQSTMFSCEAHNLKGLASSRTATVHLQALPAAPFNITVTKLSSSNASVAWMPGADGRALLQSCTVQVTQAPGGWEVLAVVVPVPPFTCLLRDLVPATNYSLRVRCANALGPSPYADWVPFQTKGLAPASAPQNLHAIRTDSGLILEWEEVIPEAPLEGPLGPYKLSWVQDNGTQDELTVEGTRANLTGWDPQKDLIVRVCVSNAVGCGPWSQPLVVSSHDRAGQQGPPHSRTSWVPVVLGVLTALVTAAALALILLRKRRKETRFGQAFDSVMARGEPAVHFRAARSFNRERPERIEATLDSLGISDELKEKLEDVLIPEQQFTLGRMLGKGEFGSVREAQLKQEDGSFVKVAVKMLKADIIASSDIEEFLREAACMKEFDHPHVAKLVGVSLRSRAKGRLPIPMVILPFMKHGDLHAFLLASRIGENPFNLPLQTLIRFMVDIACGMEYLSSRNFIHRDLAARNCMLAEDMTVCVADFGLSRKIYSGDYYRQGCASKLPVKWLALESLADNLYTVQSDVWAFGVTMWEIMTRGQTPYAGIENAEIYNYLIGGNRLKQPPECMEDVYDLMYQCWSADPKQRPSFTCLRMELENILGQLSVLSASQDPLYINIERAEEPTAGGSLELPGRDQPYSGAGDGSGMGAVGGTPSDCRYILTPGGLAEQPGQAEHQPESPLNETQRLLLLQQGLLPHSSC
Format: functional
Calls of active or inactive are those of the source.
# valid calls are active, inactive; nothing else

Consider the worked cases shown below.
compound	assayed_system	group
NC1CCC(Nc2nccc(-c3c[nH]c4ncccc34)n2)CC1 (centres undefined)	Tyrosine-protein kinase receptor TYRO3 (Homo sapiens, UniProt Q06418)	inactive
COC(C(=O)N1Cc2[nH]nc(NC(=O)c3ccc(N4CCN(C)CC4)cc3)c2C1)c1ccccc1 (centres undefined)	Tyrosine-protein kinase receptor TYRO3 (Homo sapiens, UniProt Q06418)	inactive
OCc1cc(-c2ccc3[nH]ncc3c2)on1	Tyrosine-protein kinase receptor TYRO3 (Homo sapiens, UniProt Q06418)	active

Please turn your attention to the following entry.
INPUT: For this compound, state the assay outcome: CC(C)(O)c1cn(-c2ccc3[nH]ncc3c2)nn1
OUTPUT: active
